- method-summary: Plasma pharmacokinetics of BI 187004 after single oral doses (LC–MS/MS)
- conditions: male, human, plasma, oral, 10 mg, Plasma C24 gMean (range), 10 mg single dose; 24 h
value-type: concentration at 24 h

INSERT INTO assay_data (cpd_smiles, value_type, result) VALUES
  ('N#Cc1ccc2c(c1)[C@H]1CCCN(C(=O)c3ccc4[nH]cnc4c3)[C@H]1C2', 'concentration at 24 h', '71.3 nM');

* * *

- method-summary: Plasma pharmacokinetics of BI 187004 after single oral doses (LC–MS/MS)
- conditions: male, human, plasma, po, 360 mg, BI 187004 plasma concentrations, Min, 360 mg single oral, planned time 12 h
value-type: concentration at 12 h (µM)

INSERT INTO measurements (cpd_smiles, unit_info, quantitative_result) VALUES
  ('N#Cc1ccc2c(c1)[C@H]1CCCN(C(=O)c3ccc4[nH]cnc4c3)[C@H]1C2', 'µM', 3.78);
